B1: DFFB (parent)
chain: TLVEAIKEQDGREVDWEYFYGLLF

# Variants of: B1
# EXPERIMENT_DESCRIPTION: protein stability index of a GFP-peptide fusion (GPS, HEK-293T) (PSI 1-6); higher = more stable;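 also: lentivirally expressed fusions sorted by FACS into six bins by GFP to DsRed ratio, PSI derived from sequencing read proportions per bin multiplied by bin number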
# SETTINGS: c terminus: a fixed tail appended
MEASURED_QUANTITY: protein stability index
Format: numeric value only, no unit, no commentary.

Data point: Y20V ; protein stability index = 2.42

Data point: L23H ; protein stability index = 2.07

Data point: L23R ; protein stability index = 2.5

Data point: E13T ; protein stability index = 1.98

Data point: A5T ; protein stability index = 2.88

Data point: V14I ; protein stability index = 2.05

Data point: E13S ; protein stability index = 1.76

Data point: Y20Q ; protein stability index = 2.07

Data point: L22P ; protein stability index = 3.28

Data point: Q9E ; protein stability index = 2.26

Data point: E4W ; protein stability index = 1.76

Data point: D10P ; protein stability index = 2.32

Data point: Y18L ; protein stability index = 1.25

Data point: A5Y ; protein stability index = 2.73

Data point: T1V ; protein stability index = 3.13

Data point: T1F ; protein stability index = 2.56

Data point: W16C ; protein stability index = 2.46

Data point: D15H ; protein stability index = 1.51

Data point: R12F ; protein stability index = 1.48

Data point: E17Q ; protein stability index = 2.21

Data point: F24P ; protein stability index = 2.53

Data point: G21Q ; protein stability index = 2.25

Data point: G11P ; protein stability index = 2.44

Data point: K7M ; protein stability index = 1.72

Data point: L23C ; protein stability index = 1.6

Data point: T1A ; protein stability index = 2.32

Data point: A5M ; protein stability index = 2.35

Data point: I6V ; protein stability index = 2.25

Data point: K7V ; protein stability index = 1.64

Data point: F24L ; protein stability index = 1.7

Data point: Q9T ; protein stability index = 2

Data point: Q9I ; protein stability index = 1.87

Data point: E17D ; protein stability index = 2.52

Data point: G21I ; protein stability index = 1.34

Data point: Y20R ; protein stability index = 2.67

Data point: D15N ; protein stability index = 1.9

Data point: Y18F ; protein stability index = 1.76

Data point: D15L ; protein stability index = 1.59

Data point: F24Q ; protein stability index = 2.27

Data point: V14Y ; protein stability index = 2.18

Data point: T1Y ; protein stability index = 2.13

Data point: E4S ; protein stability index = 2.62

Data point: D10S ; protein stability index = 2.37

Data point: F19D ; protein stability index = 2.76

Data point: G21S ; protein stability index = 2

Data point: V3C ; protein stability index = 1.94

Data point: G21N ; protein stability index = 1.87

Data point: E8F ; protein stability index = 1.1

Data point: E13A ; protein stability index = 1.74

Data point: D15M ; protein stability index = 1.69

Data point: A5K ; protein stability index = 1.89

Data point: L2R ; protein stability index = 2.77

Data point: E4H ; protein stability index = 1.97

Data point: F24C ; protein stability index = 2.23

Data point: Q9L ; protein stability index = 3.05

Data point: K7A ; protein stability index = 2.31

Data point: G21K ; protein stability index = 2.31

Data point: F24R ; protein stability index = 1.63

Data point: D15P ; protein stability index = 2.2

Data point: E17H ; protein stability index = 2.08

Data point: T1E ; protein stability index = 2.9

Data point: E17G ; protein stability index = 2.38

Data point: R12Y ; protein stability index = 2.59

Data point: D15Y ; protein stability index = 1.19

Data point: E17V ; protein stability index = 2.24

Data point: K7G ; protein stability index = 1.79

Data point: T1S ; protein stability index = 1.41

Data point: Q9F ; protein stability index = 2.73

Data point: F19S ; protein stability index = 2.68

These entries and their values trace back to the supplement of paper PMC10567573.
